TARGET UNDER TEST: T1, hRGMa-His (human, UniProt Q96B86 48-422, limits assumed)
T1 construct: also called human RGMa (BIAcore); not shown: His tag
T1 sequence: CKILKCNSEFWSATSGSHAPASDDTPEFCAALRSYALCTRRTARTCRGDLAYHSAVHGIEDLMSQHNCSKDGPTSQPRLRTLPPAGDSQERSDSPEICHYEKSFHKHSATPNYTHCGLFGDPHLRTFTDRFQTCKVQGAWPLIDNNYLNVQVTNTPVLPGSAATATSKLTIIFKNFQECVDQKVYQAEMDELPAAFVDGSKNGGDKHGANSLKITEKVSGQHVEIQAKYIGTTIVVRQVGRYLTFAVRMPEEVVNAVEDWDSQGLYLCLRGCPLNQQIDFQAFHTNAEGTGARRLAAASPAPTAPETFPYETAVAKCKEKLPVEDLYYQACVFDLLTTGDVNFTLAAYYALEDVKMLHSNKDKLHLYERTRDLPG
TEST DETAILS: BIAcore
koff for assorted binders
MEASURED QUANTITY: koff (s⁻¹)

BINDER	MEASURED QUANTITY	RESULT UNITS	ASSAY RESULT
AE12-1-V (antibody, V domains shown, AE12-1 variant; read as AE12-1-V from the order of the variants; IgG) VH: EVQLVQSGAEVKKPGASVKVSCKASGYTFTSHGISWVRQAPGQGLDWMGWISPYSGNTNYAQKLQGRVTMTTDTSTSTAYMELSSLRSEDTAVYYCARVGSGPYYYMDVWGQGTLVTVSS VL: QSALTQPRSVSGSPGQSVTISCTGTSSSVGDSIYVSWYQQHPGKAPKLMLYDVTKRPSGVPDRFSGSKSGNTASLTISGLQAEDEADYYCVSYAGTDTLFGGGTKVTVL	koff	s⁻¹	0.00015
AE12-1-H (antibody, V domains shown, AE12-1 variant; IgG) VH: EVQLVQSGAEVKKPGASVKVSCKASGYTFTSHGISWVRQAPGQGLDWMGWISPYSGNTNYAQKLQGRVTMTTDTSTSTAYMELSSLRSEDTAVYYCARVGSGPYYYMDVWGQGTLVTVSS VL: QSALTQPRSVSGSPGQSVTISCTGTSSSVGDSIYVSWYQQHPGKAPKLMLYDVTKRPSGVPDRFSGSKSGNTASLTISGLQAEDEADYYCHSYAGTDTLFGGGTKVTVL	koff	s⁻¹	0.00012
AE12-1-I (antibody, V domains shown, AE12-1 variant; IgG) VH: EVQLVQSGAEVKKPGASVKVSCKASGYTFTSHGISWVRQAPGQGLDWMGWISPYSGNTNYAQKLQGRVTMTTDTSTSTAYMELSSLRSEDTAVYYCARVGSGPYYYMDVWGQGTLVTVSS VL: QSALTQPRSVSGSPGQSVTISCTGTSSSVGDSIYVSWYQQHPGKAPKLMLYDVTKRPSGVPDRFSGSKSGNTASLTISGLQAEDEADYYCISYAGTDTLFGGGTKVTVL	koff	s⁻¹	0.00013
AE12-1-Y (antibody, V domains shown, AE12-1 variant; IgG) VH: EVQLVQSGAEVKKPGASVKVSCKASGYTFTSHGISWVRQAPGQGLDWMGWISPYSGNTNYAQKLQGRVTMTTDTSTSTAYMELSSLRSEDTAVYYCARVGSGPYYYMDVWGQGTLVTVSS VL: QSALTQPRSVSGSPGQSVTISCTGTSSSVGDSIYVSWYQQHPGKAPKLMLYDVTKRPSGVPDRFSGSKSGNTASLTISGLQAEDEADYYCYSYAGTDTLFGGGTKVTVL	koff	s⁻¹	1.3e-05
AE12-1 (antibody, V domains shown, lambda light chain) VH: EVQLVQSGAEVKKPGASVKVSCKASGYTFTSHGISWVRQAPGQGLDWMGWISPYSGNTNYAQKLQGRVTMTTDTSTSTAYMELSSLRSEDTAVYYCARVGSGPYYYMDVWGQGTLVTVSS VL: QSALTQPRSVSGSPGQSVTISCTGTSSSVGDSIYVSWYQQHPGKAPKLMLYDVTKRPSGVPDRFSGSKSGNTASLTISGLQAEDEADYYCCSYAGTDTLFGGGTKVTVL	koff	s⁻¹	0.00023

Source listed as patent US20160326240A1.
